- System: PDC-DUC18828
- method summary: cell viability of compound + 1 nM pemigatinib relative to pemigatinib-only (DMSO) wells (fraction); PDC-DUC18828 is a patient-derived cholangiocarcinoma cell line; higher = less growth inhibition
- test context: first compound 1 µM; pemigatinib concentration 1 nM; 72 h
The full ranking holds about 1,900 compounds; the median of “cell viability of compound + 1 nM pemigatinib relative to pemigatinib-only (DMSO) wells” is about 0.95 nM, and the lowest 2% start at about 0.22 nM. This is one part of a sample in which the lowest values are shown more often than they occur.
// values below are reported cell viability
endpoint label: cell viability

compound="CNc1cccc(CCOc2ccc3c(c2)CN(CC(F)(F)F)C(=O)[C@H](CC(=O)O)C3)n1 + CCN1C(=O)N(c2c(F)c(OC)cc(OC)c2F)Cc2cnc3[nH]c(CN4CCOCC4)cc3c21" endpoint_label="cell viability" readout_number=0.858
compound="O=C(CCCCCN1C(=O)c2cccc3cccc(c23)C1=O)NO [Scriptaid] + CCN1C(=O)N(c2c(F)c(OC)cc(OC)c2F)Cc2cnc3[nH]c(CN4CCOCC4)cc3c21" endpoint_label="cell viability" readout_number=0.866
compound="CC(C)c1cc(-c2n[nH]c(=O)n2-c2ccc3c(ccn3C)c2)c(O)cc1O [Ganetespib (STA-9090)] + CCN1C(=O)N(c2c(F)c(OC)cc(OC)c2F)Cc2cnc3[nH]c(CN4CCOCC4)cc3c21" endpoint_label="cell viability" readout_number=0.318
compound="Cn1cc(-c2ccc(S(=O)(=O)n3ccc(/C=C/C(=O)Nc4ccccc4N)c3)cc2)cn1 + CCN1C(=O)N(c2c(F)c(OC)cc(OC)c2F)Cc2cnc3[nH]c(CN4CCOCC4)cc3c21" endpoint_label="cell viability" readout_number=0.568
compound="Oc1cc2c(cc1O)[C@@H]1c3ccc(O)c(O)c3OC[C@]1(O)C2 [Hematoxylin] + CCN1C(=O)N(c2c(F)c(OC)cc(OC)c2F)Cc2cnc3[nH]c(CN4CCOCC4)cc3c21" endpoint_label="cell viability" readout_number=0.897
compound="CC(C)C[C@H](NC(=O)[C@H](Cc1ccccc1)C[C@@H](O)[C@H](Cc1ccccc1)NC(=O)OC(C)(C)C)C(=O)N[C@@H](Cc1ccccc1)C(N)=O + CCN1C(=O)N(c2c(F)c(OC)cc(OC)c2F)Cc2cnc3[nH]c(CN4CCOCC4)cc3c21" endpoint_label="cell viability" readout_number=0.915
compound="C[C@@H](Nc1cc(F)cc(F)c1)c1cc(C(=O)N(C)C)cc2c(=O)cc(N3CCOCC3)oc12 + CCN1C(=O)N(c2c(F)c(OC)cc(OC)c2F)Cc2cnc3[nH]c(CN4CCOCC4)cc3c21" endpoint_label="cell viability" readout_number=0.66
compound="Cc1cc(Nc2nc(N[C@@H](C)c3ncc(F)cn3)ncc2Cl)[nH]n1 + CCN1C(=O)N(c2c(F)c(OC)cc(OC)c2F)Cc2cnc3[nH]c(CN4CCOCC4)cc3c21" endpoint_label="cell viability" readout_number=0.62
compound="CN(C)Cc1cccc(N/C(=C2\\C(=O)Nc3cc(C(N)=O)ccc32)c2ccccc2)c1 + CCN1C(=O)N(c2c(F)c(OC)cc(OC)c2F)Cc2cnc3[nH]c(CN4CCOCC4)cc3c21" endpoint_label="cell viability" readout_number=1
compound="CC(C)NC[C@@H](C(=O)N1CCN(c2ncnc3c2[C@H](C)C[C@H]3O)CC1)c1ccc(Cl)cc1 + CCN1C(=O)N(c2c(F)c(OC)cc(OC)c2F)Cc2cnc3[nH]c(CN4CCOCC4)cc3c21" endpoint_label="cell viability" readout_number=0.87
compound="CC(C)C[C@H](NC(=O)[C@@H](NC(=O)c1cccc(-c2ccccc2)n1)[C@@H](C)O)B(O)O + CCN1C(=O)N(c2c(F)c(OC)cc(OC)c2F)Cc2cnc3[nH]c(CN4CCOCC4)cc3c21" endpoint_label="cell viability" readout_number=0.0169
compound="CCOc1cn(-c2ccc(F)cc2C)nc1C(=O)Nc1ccc(Oc2ccnc3cc(OC)c(OC)cc23)c(F)c1 + CCN1C(=O)N(c2c(F)c(OC)cc(OC)c2F)Cc2cnc3[nH]c(CN4CCOCC4)cc3c21" endpoint_label="cell viability" readout_number=0.84
compound="CNC(=O)[C@H](Cc1ccccc1)NC(=O)[C@H](CC(C)C)[C@H](CSc1cccs1)C(=O)NO [Batimastat (BB-94)] + CCN1C(=O)N(c2c(F)c(OC)cc(OC)c2F)Cc2cnc3[nH]c(CN4CCOCC4)cc3c21" endpoint_label="cell viability" readout_number=0.933
compound="O=C(c1ccc(F)cc1)N1CCC[C@H](c2nc(-c3ccc(F)cc3)no2)C1 + CCN1C(=O)N(c2c(F)c(OC)cc(OC)c2F)Cc2cnc3[nH]c(CN4CCOCC4)cc3c21" endpoint_label="cell viability" readout_number=0.976
compound="CC(C)C[C@H](NC(=O)[C@H](Cc1ccccc1)NC(=O)c1cnccn1)B(O)O [Bortezomib (PS-341)] + CCN1C(=O)N(c2c(F)c(OC)cc(OC)c2F)Cc2cnc3[nH]c(CN4CCOCC4)cc3c21" endpoint_label="cell viability" readout_number=0.0199
compound="O=C(/C=C/N1C[C@H]2C[C@@H]1CN2c1ccccn1)c1ccccc1O + CCN1C(=O)N(c2c(F)c(OC)cc(OC)c2F)Cc2cnc3[nH]c(CN4CCOCC4)cc3c21" endpoint_label="cell viability" readout_number=1.06
compound="CC(C)(C)NS(=O)(=O)c1cncc(-c2cc(F)c3nc(N)nn3c2)c1 + CCN1C(=O)N(c2c(F)c(OC)cc(OC)c2F)Cc2cnc3[nH]c(CN4CCOCC4)cc3c21" endpoint_label="cell viability" readout_number=0.959
compound="C=CC(=O)Nc1cccc(Nc2nc(Nc3ccc(NC4CN(CCF)C4)cc3OC)ncc2C(F)(F)F)c1 + CCN1C(=O)N(c2c(F)c(OC)cc(OC)c2F)Cc2cnc3[nH]c(CN4CCOCC4)cc3c21" endpoint_label="cell viability" readout_number=0.811
